Test target: kappa opioid receptor (Homo sapiens, UniProt P41145)
Sequence (P41145 whole entry): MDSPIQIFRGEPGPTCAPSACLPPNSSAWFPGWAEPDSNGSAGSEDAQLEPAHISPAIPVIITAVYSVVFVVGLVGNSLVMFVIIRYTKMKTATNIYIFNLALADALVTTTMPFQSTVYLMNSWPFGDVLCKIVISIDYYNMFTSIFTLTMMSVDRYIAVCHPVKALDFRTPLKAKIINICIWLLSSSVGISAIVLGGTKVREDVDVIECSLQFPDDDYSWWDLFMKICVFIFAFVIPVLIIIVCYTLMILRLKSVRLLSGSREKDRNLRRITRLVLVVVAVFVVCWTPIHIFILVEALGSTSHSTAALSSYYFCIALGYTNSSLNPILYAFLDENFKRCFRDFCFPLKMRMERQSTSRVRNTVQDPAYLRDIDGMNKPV
Assay method text: Filtration binding assay: kappa opioid receptor
Use IC50 to assign classes; range list: low interval: < 200 nM; middle interval: ≥ 200 nM and < 1000 nM; high interval: ≥ 1000 nM

| Compound | Class assignment |
| --- | --- |
| O=C1N(C[C@@H](O)CN2CCN(C(c3ccccc3)c3ccc(Cl)cc3)CC2)CN(c2ccc(F)cc2)C12CCN(C1Cc3cccc4cccc1c34)CC2 (mixture of isomers) | middle interval |
| CCOC(=O)CN(Cc1ccccc1)C[C@H](O)CN1CN(c2ccc(F)cc2)C2(CCN(Cc3cc(C(F)(F)F)cc(C(F)(F)F)c3)CC2)C1=O | high interval |
| O=C1N(C[C@@H](O)CNCc2ccccn2)CN(c2ccc(F)cc2)C12CCN(CC1CCCCCCC1)CC2 | high interval |
| O=C1N(C[C@H](O)CNCc2cc(C(F)(F)F)cc(C(F)(F)F)c2)CN(c2ccc(F)cc2)C12CCN(CC1CCCCCCC1)CC2 | middle interval |
| CSc1cccc(C(=O)N(Cc2ccc(C)cc2)C[C@H](O)CN2CN(c3ccc(F)cc3)C3(CCN(CC4CCCCCCC4)CC3)C2=O)n1 | middle interval |
| O=C1N(C[C@@H](O)CNCc2ccc(F)cc2F)CN(c2ccc(F)cc2)C12CCN(CC1CCCCCCC1)CC2 | low interval |
| O=C1N(C[C@@H](O)CN2CCc3ccccc3C2)CN(c2ccc(F)cc2)C12CCN(CC1CCCCCCC1)CC2 | middle interval |
| NC[C@H](O)CN1CN(c2ccc(F)cc2)C2(CCN([C@@H]3Cc4cccc5cccc3c45)CC2)C1=O | middle interval |
| CN(C)CCN(Cc1ccccc1)C[C@H](O)CN1CN(c2ccc(F)cc2)C2(CCN(Cc3c(Cl)cccc3C(F)(F)F)CC2)C1=O | high interval |
| O=C1N(C[C@H](O)CNCCc2c[nH]cn2)CN(c2ccc(F)cc2)C12CCN(CC1CCCCCCC1)CC2 | low interval |
| O=C1N(C[C@@H](O)CNCc2cccc(C(F)(F)F)c2)CN(c2ccc(F)cc2)C12CCN(CC1CCCCCCC1)CC2 | high interval |
| CCCCN(Cc1ccccc1)C[C@H](O)CN1CN(c2ccccc2)C2(CCN(C3Cc4cccc5c4[C@@H](CCC5)C3)CC2)C1=O (stereo partly shown) | low interval |
| Cc1cccc2cccc(CN3CCC4(CC3)C(=O)N(C[C@@H](O)CO)CN4c3ccc(F)cc3)c12 | high interval |

====

Test target: delta opioid receptor (Homo sapiens, UniProt P41143)
Sequence (P41143 whole entry): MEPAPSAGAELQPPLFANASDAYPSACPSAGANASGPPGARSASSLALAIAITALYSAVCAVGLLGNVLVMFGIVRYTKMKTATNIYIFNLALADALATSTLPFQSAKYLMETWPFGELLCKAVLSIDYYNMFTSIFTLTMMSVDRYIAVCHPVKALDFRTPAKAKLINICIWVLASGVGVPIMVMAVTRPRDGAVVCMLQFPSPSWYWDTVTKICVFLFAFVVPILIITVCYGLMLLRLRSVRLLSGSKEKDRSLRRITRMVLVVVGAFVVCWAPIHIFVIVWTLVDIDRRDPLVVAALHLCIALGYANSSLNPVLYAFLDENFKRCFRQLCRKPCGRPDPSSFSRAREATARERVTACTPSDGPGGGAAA
Assay method text: Filtration binding assay: delta opioid receptor
pIC50: −log10 of the molar value.

| Compound | pIC50 |
| --- | --- |
| O=C1N(C[C@H]2CO2)CN(c2ccc(F)cc2)C12CCN(Cc1ccc3ccccc3c1)CC2 | < 5.00 |
| O=C1N(C[C@@H](O)CNCCc2ccc3c(c2)OCO3)CN(c2ccc(F)cc2)C12CCN(Cc1cccc3ccccc13)CC2 | < 5.00 |
| CC(=O)NC(CSC[C@H](O)CN1CN(c2ccc(F)cc2)C2(CCN(CC3CCCCCCC3)CC2)C1=O)C(=O)O (single isomer, unassigned) | 6.32 |
| O=C1N(C[C@@H](O)CNCCN2CCOCC2)CN(c2ccc(F)cc2)C12CCN(Cc1cccc3ccccc13)CC2 | < 5.00 |
| CC1CN(C[C@H](O)CN2CN(c3ccc(F)cc3)C3(CCN(CC4CCCCCCC4)CC3)C2=O)CC(C)O1 (stereo partly shown) | < 5.00 |
| COC(=O)c1ccc(CNC[C@H](O)CN2CN(c3ccc(F)cc3)C3(CCN(C4Cc5cccc6cccc4c56)CC3)C2=O)cc1 (mixture of isomers) | < 5.00 |
| CCCCN(Cc1ccccc1)C[C@H](O)CN1CN(c2ccccc2)C2(CCN(C3Cc4cccc5c4[C@@H](CCC5)C3)CC2)C1=O (stereo partly shown) | < 5.00 |
| CCN(Cc1ccc(C)cc1)C[C@H](O)CN1CN(c2ccc(F)cc2)C2(CCN(Cc3cccc4ccccc34)CC2)C1=O | < 5.00 |
| Cc1ccc(CNC[C@H](O)CN2CN(c3ccc(F)cc3)C3(CCN(CC4CCCCCCC4)CC3)C2=O)cc1 | < 5.00 |
| Cc1cccc(CNC[C@H](O)CN2CN(c3ccc(F)cc3)C3(CCN(CC4CCCCCCC4)CC3)C2=O)c1 | < 5.00 |
| O=C1N(C[C@@H](O)CNCC23CC4CC(CC(C4)C2)C3)CN(c2ccc(F)cc2)C12CCN(CC1CCCCCCC1)CC2 | < 5.00 |
| COc1ccc(CCNC[C@@H](O)CN2CN(c3ccc(F)cc3)C3(CCN(C4Cc5cccc6cccc4c56)CC3)C2=O)cc1OC (mixture of isomers) | 5.32 |
| COc1ccc(CCNC[C@H](O)CN2CN(c3ccc(F)cc3)C3(CCN(Cc4ccc5ccccc5c4)CC3)C2=O)cc1OC | < 5.00 |

====

IC50 for assorted compounds
Test target: kappa opioid receptor (Homo sapiens)
Assay method text: Filtration binding assay: kappa opioid receptor
Observable: IC50 (nM)

| Compound | Test target | Bound operator | Quantitative result |
| --- | --- | --- | --- |
| O=C1N(C[C@@H](O)CNCCc2ccccc2)CN(c2ccc(F)cc2)C12CCN(CC1CCCCCCC1)CC2 [Compound #11] | kappa opioid receptor (Homo sapiens) | = | 290 |
| O=C1N(C[C@@H](O)CNc2ccc(Br)cn2)CN(c2ccc(F)cc2)C12CCN(CC1CCCCCCC1)CC2 [compound 13] | kappa opioid receptor (Homo sapiens) | = | 120 |
| O=C1N(C[C@@H](O)CNc2ccncc2)CN(c2ccc(F)cc2)C12CCN(Cc1cc(C(F)(F)F)cc(C(F)(F)F)c1)CC2 [compound 608] | kappa opioid receptor (Homo sapiens) | ≥ | 10000 |
| COc1ccc(CCN(C)C[C@H](O)CN2CN(c3ccc(F)cc3)C3(CCN(Cc4cccc5ccccc45)CC3)C2=O)cc1OC [compound 256] | kappa opioid receptor (Homo sapiens) | = | 1180 |

====

IC50 for assorted compounds
Test target: delta opioid receptor (Homo sapiens)
Assay method text: Filtration binding assay: delta opioid receptor

| Compound | IC50 |
| --- | --- |
| O=C1N(C[C@@H](O)CNCc2ccccn2)CN(c2ccc(F)cc2)C12CCN(CC1CCCCCCC1)CC2 [compound 39] | > 10 µM |
| COc1ccc(CNC[C@@H](O)CN2CN(c3ccc(F)cc3)C3(CCN(CC4CCCCCCC4)CC3)C2=O)cc1OC [Compound #2] | > 10 µM |
| COc1cccc(CNC[C@H](O)CN2CN(c3ccc(F)cc3)C3(CCN(CC4CCCCCCC4)CC3)C2=O)c1 [compound 35] | > 10 µM |
| COc1ccc(CCNC[C@H](O)CN2CN(c3ccc(F)cc3)C3(CCN(Cc4cccc5ccccc45)CC3)C2=O)cc1OC [compound 253] | 2.16 µM |
| COc1ccc(CCNC[C@H](O)CN2CN(c3ccc(F)cc3)C3(CCN(C4Cc5cccc6cccc4c56)CC3)C2=O)cc1OC (mixture of isomers) [compound 48] | > 10 µM |
| COc1ccc(CNC[C@H](O)CN2CN(c3ccc(F)cc3)C3(CCN(Cc4cccc5cccc(C)c45)CC3)C2=O)cc1 [compound 398] | > 10 µM |

====

pIC50 for assorted compounds
Test target: mu opioid receptor (Homo sapiens, UniProt P35372)
Sequence (P35372 whole entry): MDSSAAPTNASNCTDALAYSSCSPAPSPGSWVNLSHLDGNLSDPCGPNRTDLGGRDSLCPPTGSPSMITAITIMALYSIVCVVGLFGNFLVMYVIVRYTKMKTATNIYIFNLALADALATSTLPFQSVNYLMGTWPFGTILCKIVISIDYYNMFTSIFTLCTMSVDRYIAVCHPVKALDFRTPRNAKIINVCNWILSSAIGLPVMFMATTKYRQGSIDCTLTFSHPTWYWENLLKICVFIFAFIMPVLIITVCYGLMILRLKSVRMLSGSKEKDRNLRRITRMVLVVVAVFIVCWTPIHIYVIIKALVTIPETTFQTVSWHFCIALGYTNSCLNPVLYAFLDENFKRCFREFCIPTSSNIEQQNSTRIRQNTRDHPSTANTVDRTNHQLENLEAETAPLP
Assay method text: Filtration binding assay: mu opioid receptor
pIC50: −log10 of the molar value.

| Compound | Bound operator | pIC50 |
| --- | --- | --- |
| COc1ccc(CCNC[C@@H](O)CN2CN(c3ccccc3)C3(CCN(CCc4ccccc4-c4cccs4)CC3)C2=O)cc1 | = | 6.98 |
| O=C1N(C[C@@H](O)CNCc2cc(C(F)(F)F)cc(C(F)(F)F)c2)CN(c2ccc(F)cc2)C12CCN(C1Cc3cccc4cccc1c34)CC2 (mixture of isomers) | = | 6.49 |
| O=C1N(C[C@@H](O)CNCc2ccc(Br)cc2)CN(c2ccc(F)cc2)C12CCN(CC1CCCCCCC1)CC2 | = | 6.07 |
| COc1ccc(CCNC[C@H](O)CN2CN(c3ccc(F)cc3)C3(CCN(Cc4cccc5ccccc45)CC3)C2=O)cc1OC | = | 6.12 |
| CCCCN(Cc1ccccc1)C[C@H](O)CN1CN(c2ccc(F)cc2)C2(CCN(Cc3c(Cl)cccc3C(F)(F)F)CC2)C1=O | < | 5.00 |
| O=C1N(C[C@@H](O)CNc2ccncc2)CN(c2ccc(F)cc2)C12CCN(Cc1cc(C(F)(F)F)cc(C(F)(F)F)c1)CC2 | ≤ | 5.00 |
| O=C1N(C[C@@H](O)CNCCc2ccc3c(c2)OCO3)CN(c2ccc(F)cc2)C12CCN(Cc1cccc3ccccc13)CC2 | = | 5.55 |

====

pIC50 for assorted compounds
Test target: UniProt:P35372
Assay method text: Filtration binding assay: mu opioid receptor
pIC50: −log10 of the molar value.
Observable: pIC50

| Compound | Bound operator | Quantitative result |
| --- | --- | --- |
| COc1ccc(CCN(C)C[C@H](O)CN2CN(c3ccc(F)cc3)C3(CCN(Cc4cc(C(F)(F)F)cc(C(F)(F)F)c4)CC3)C2=O)cc1OC | ≤ | 5.00 |
| COc1ccc(CCNC[C@H](O)CN2CN(c3ccc(F)cc3)C3(CCN(C4Cc5cccc6cccc4c56)CC3)C2=O)cc1OC (mixture of isomers) | = | 6.27 |
| O=C1N(C[C@@H](O)CN(Cc2ccccc2)C[C@@H]2CCC[C@@H]2O)CN(c2ccc(F)cc2)C12CCN(CC1CCCCCCC1)CC2 | = | 5.86 |
| COc1cc(CCNC[C@H](O)CN2CN(c3ccc(F)cc3)C3(CCN(Cc4cccc5ccccc45)CC3)C2=O)c([N+](=O)[O-])cc1OC | = | 5.60 |
| O=C1N(C[C@@H](O)CN2CCc3ccccc3C2)CN(c2ccc(F)cc2)C12CCN(Cc1cc(C(F)(F)F)cc(C(F)(F)F)c1)CC2 | ≤ | 5.00 |
| COc1ccc(CCN(C)C[C@H](O)CN2CN(c3ccc(F)cc3)C3(CCN(Cc4ccc5ccccc5c4)CC3)C2=O)cc1OC | = | 6.23 |
| CCCCN(Cc1ccccc1)C[C@H](O)CN1CN(c2ccc(F)cc2)C2(CCN(Cc3cc(C(F)(F)F)cc(C(F)(F)F)c3)CC2)C1=O | ≤ | 5.00 |
| O=C1N(C[C@@H](O)CNCCN2CCOCC2)CN(c2ccc(F)cc2)C12CCN(Cc1ccc3ccccc3c1)CC2 | = | 6.30 |
| COc1ccc(CCN(C)C[C@H](O)CN2CN(c3ccc(F)cc3)C3(CCN(Cc4cccc5cccc(C)c45)CC3)C2=O)cc1OC | < | 5.00 |
| CCOC(=O)CN(Cc1ccccc1)C[C@H](O)CN1CN(c2ccc(F)cc2)C2(CCN(Cc3cc(C(F)(F)F)cc(C(F)(F)F)c3)CC2)C1=O | ≤ | 5.00 |
| Cc1cccc(CNC[C@H](O)CN2CN(c3ccc(F)cc3)C3(CCN(CC4CCCCCCC4)CC3)C2=O)c1 | = | 6.35 |
| COc1ccc(CCNC[C@H](O)CN2CN(c3ccc(F)cc3)C3(CCN(Cc4ccc5ccccc5c4)CC3)C2=O)cc1OC | = | 5.81 |
| O=C1N(C[C@@H](O)CN2C=CCC2)CN(c2ccc(F)cc2)C12CCN(CC1CCCCCCC1)CC2 | = | 6.20 |
| COc1ccc(CNC[C@H](O)CN2CN(c3ccc(F)cc3)C3(CCN(CC4CCCCCCC4)CC3)C2=O)cc1OC | = | 6.22 |
| COc1ccc(CNC[C@H](O)CN2CN(c3ccc(F)cc3)C3(CCN(C4Cc5cccc6cccc4c56)CC3)C2=O)cc1OC (mixture of isomers) | = | 6.12 |
| CN(C)CCN(Cc1ccccc1)C[C@H](O)CN1CN(c2ccc(F)cc2)C2(CCN(Cc3c(Cl)cccc3C(F)(F)F)CC2)C1=O | < | 5.00 |
| Cc1cccc2cccc(CN3CCC4(CC3)C(=O)N(C[C@@H](O)CNCCN3CCOCC3)CN4c3ccc(F)cc3)c12 | < | 5.00 |
| CC1CN(C[C@H](O)CN2CN(c3ccc(F)cc3)C3(CCN(CC4CCCCCCC4)CC3)C2=O)CC(C)O1 (some centres unmarked) | = | 6.01 |
| O=C1N(C[C@H]2CO2)CN(c2ccc(F)cc2)C12CCN(Cc1ccc3ccccc3c1)CC2 | = | 6.80 |
| O=C1N(C[C@@H](O)CN2CCN(C(c3ccccc3)c3ccc(Cl)cc3)CC2)CN(c2ccc(F)cc2)C12CCN(C1Cc3cccc4cccc1c34)CC2 (mixture of isomers) | = | 6.26 |
| COc1cc(CNC[C@H](O)CN2CN(c3ccc(F)cc3)C3(CCN(CC4CCCCCCC4)CC3)C2=O)cc(OC)c1OC | = | 6.27 |
| O=C1N(C[C@@H](O)CNCCc2ccc3c(c2)OCO3)CN(c2ccc(F)cc2)C12CCN(Cc1ccc3ccccc3c1)CC2 | = | 6.07 |
| Cc1cccc2cccc(CN3CCC4(CC3)C(=O)N(C[C@H](O)CN(Cc3ccccc3)C(C)(C)C)CN4c3ccc(F)cc3)c12 | = | 5.15 |
| Cc1ccc(CNC[C@H](O)CN2CN(c3ccc(F)cc3)C3(CCN(CC4CCCCCCC4)CC3)C2=O)cc1 | = | 5.68 |
| O=C1N(C[C@@H](O)CNCc2ccc(Cl)cc2Cl)CN(c2ccc(F)cc2)C12CCN(CC1CCCCCCC1)CC2 | = | 5.53 |
| O=C1N(C[C@H](O)CNCc2cc(C(F)(F)F)cc(C(F)(F)F)c2)CN(c2ccc(F)cc2)C12CCN(CC1CCCCCCC1)CC2 | = | 5.39 |
